Where these numbers come from: the supplement of paper PMC9694430

Tested on: LOC_OS01G60330-cb001;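 also: purified Escherichia coli-expressed rice kinase domain construct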
Assay: thermal shift delta Tm vs DMSO control; higher = stronger stabilization (binding)
Settings: 12.5 µM; protein concentration 2 µM
Outcome measure: thermal shift delta Tm (°C)
Hi! Could you send only the number? It should be in °C, unit omitted.

## Input Tell me measured thermal shift delta Tm for CO[C@H]1C[C@@H]2CC[C@@H](C)[C@@](O)(O2)C(=O)C(=O)N2CCCC[C@H]2C(=O)O[C@H]([C@H](C)C[C@@H]2CC[C@H](n3cnnn3)[C@H](OC)C2)CC(=O)[C@H](C)/C=C(\C)[C@@H](O)[C@@H](OC)C(=O)[C@H](C)C[C@H](C)/C=C/C=C/C=C/1C please.
## Output 2.43

## Input Tell me measured thermal shift delta Tm for CC[C@@H]1C(=O)N(C)c2cnc(Nc3ccc(C(=O)N[C@H]4CC[C@H](N5CCN(CC6CC6)CC5)CC4)cc3OC)nc2N1C(C)C please.
## Output 2.49

## Input Tell me measured thermal shift delta Tm for COc1cc(Nc2ncc3c(n2)-c2ccc(Cl)cc2C(c2c(F)cccc2OC)=NC3)ccc1C(=O)O please.
## Output 0.56

## Input Tell me measured thermal shift delta Tm for COCCOc1ccc2c(c1)ncn2-c1ccc2cccc(N3CCC(N)CC3)c2n1 please.
## Output 0.82

## Input Tell me measured thermal shift delta Tm for CNc1nc(-c2ccc3c(N)n[nH]c3c2)cc(N2C[C@@H](C(=O)NC3CCCCC3)CC[C@H]2C)n1 please.
## Output 0.28

## Input Tell me measured thermal shift delta Tm for C[C@H](CN(C)C)Oc1nc(Nc2cc3cccc(Cl)c3cn2)cnc1C#N please.
## Output 1.48

## Input Tell me measured thermal shift delta Tm for O=c1cc(N2CCOCC2)oc2c(-c3ccc4c(c3)OCCO4)csc12 please.
## Output 0.29

## Input Tell me measured thermal shift delta Tm for CNC(=O)c1cc(Oc2ccc(NC(=O)Nc3ccc(Cl)c(C(F)(F)F)c3)c(F)c2)ccn1 please.
## Output 0.62

## Input Tell me measured thermal shift delta Tm for COc1ncc(-c2ccc3nccc(-c4ccnnc4)c3c2)cc1NS(=O)(=O)c1ccc(F)cc1F please.
## Output 0.36

## Input Tell me measured thermal shift delta Tm for Cn1sc(=O)n(Cc2ccccc2)c1=O please.
## Output -0.15

## Input Tell me measured thermal shift delta Tm for CCNc1nc(Nc2cc(F)c(C(=O)N3CCOCC3)cc2OC)ncc1C(F)(F)F please.
## Output 1.21

## Input Tell me measured thermal shift delta Tm for C=CC(=O)N[C@H]1CCOC[C@H]1Nc1ncc2cc(-c3c(Cl)c(OC)cc(OC)c3Cl)ccc2n1 please.
## Output -0.43

## Input Tell me measured thermal shift delta Tm for Cc1ccc(NC(=O)c2ccc(CN3CCN(C)CC3)cc2)cc1Nc1nc(-c2cccnc2)cs1 please.
## Output 1.59

## Input Tell me measured thermal shift delta Tm for O=C1NC(=O)/C(=C/c2ccc3c(c2)OC(F)(F)O3)S1 please.
## Output 0.63

## Input Tell me measured thermal shift delta Tm for CN(C)CCCn1cc(C2=C(c3c[nH]c4ccccc34)C(=O)NC2=O)c2ccccc21 please.
## Output 1.19
